The entries below are paired with their reported TGI.
Test system: DMS 273 small cell lung
Test: NCI tumour cell line growth inhibition, 48 h

molecule: COc1ccc(/C=C2\CN(C)Cc3c2nc(N)nc3-c2ccc(OC)cc2)cc1
obs.value: > 100 µM
//
molecule: CC[P+](C)(Cc1ccccc1)c1ccccc1 (stereo not drawn)
obs.value: > 100 µM

Alright, here's another molecule for you.
Consider the molecule Cc1ccc(C)c(NC(=O)C(=O)CC(=O)C2CCOC2=O)c1 (stereo not drawn) and give its measured TGI.
> 100 µM

---

The entries below are paired with their reported TGI.
System: NCI-H522 lung
Test: NCI tumour cell line growth inhibition, 48 h

compound: Nc1nc(CCC(=O)Nc2cccc(C(F)(F)F)c2)cc(-c2cccc3ccccc23)n1
obs.value: > 100 µM

Consider the compound `Cc1ccc(C)n1-c1ccccc1C1SCCCS1` and give its measured TGI.
> 100 µM
